# assayed system: eEF1A1 (recombinant human eEF1A1) (Homo sapiens, UniProt P68104)
# Sequence (P68104 whole entry): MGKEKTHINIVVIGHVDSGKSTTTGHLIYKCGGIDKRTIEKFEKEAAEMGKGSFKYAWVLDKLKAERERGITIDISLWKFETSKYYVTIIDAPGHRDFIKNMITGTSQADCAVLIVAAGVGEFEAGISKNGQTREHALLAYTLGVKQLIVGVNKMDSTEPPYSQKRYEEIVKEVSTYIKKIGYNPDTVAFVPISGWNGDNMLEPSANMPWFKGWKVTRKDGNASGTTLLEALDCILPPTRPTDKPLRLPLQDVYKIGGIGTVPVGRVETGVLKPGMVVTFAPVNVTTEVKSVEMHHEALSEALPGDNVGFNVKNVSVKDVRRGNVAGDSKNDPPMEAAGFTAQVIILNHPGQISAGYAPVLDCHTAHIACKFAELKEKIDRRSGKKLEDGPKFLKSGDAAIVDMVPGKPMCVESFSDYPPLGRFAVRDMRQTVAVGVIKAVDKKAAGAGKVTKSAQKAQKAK
# measurement protocol: isothermal titration calorimetry (MicroCal PEAQ-ITC)
readout: pKd
pKd here is simply -log10 of the concentration when that concentration is written in mol/L.

Indicate the recorded pKd value for this molecule: COc1ccc(C[C@@H]2c3cc(Oc4cc(C[C@@H]5c6cc(OC)c(OC)cc6CCN5C)ccc4O)c(OC)cc3CCN2C)cc1
5.32
